Listed here: items and their measured ELISA_avg.
Study system: T1, P26 (human, UniProt P02771 381-609, limits assumed)
T1 construct: also called AFP p26
T1 sequence: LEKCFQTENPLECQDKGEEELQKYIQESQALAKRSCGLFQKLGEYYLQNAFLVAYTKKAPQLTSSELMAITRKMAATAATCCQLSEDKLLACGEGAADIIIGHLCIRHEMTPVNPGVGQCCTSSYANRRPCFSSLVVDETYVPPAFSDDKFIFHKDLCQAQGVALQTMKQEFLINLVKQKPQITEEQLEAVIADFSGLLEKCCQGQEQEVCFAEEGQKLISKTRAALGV
Protocol notes: ELISA, format not described
Parameters: unit not given here
Answer as a number with no unit attached.

Here is how some binders turned out for ELISA_avg.
Binder | Measure | Numeric value
D domain SEQ ID NO: 974 (designed binder) MGSWSIFKDDLAVIKERLEALGGSEAELAHFEQDIAWFEHLLQYYKGKGNPEVEALRKEAAAIRDELQAYRHN | ELISA_avg | 25.6
D domain SEQ ID NO: 904 (designed binder) MGSWYEFVSRLEAIDDRLYALGGSEAELAAFEKEIAAFESELQAYKGKGNPEVEMLRQHAAAIRHWLQAYRHN | ELISA_avg | 33.1

// switching to the query binder
Req: Sample D domain SEQ ID NO: 857 (designed binder) MGSWKEFIQRLDAIHYRLWALGGSEAELAAFEKEIAAFESELQAYKGKGNPEVEYLRFVAAFIRFELQAYRHN — what was its ELISA_avg?
Resp: 18.4
